biological target: Cyclin-dependent kinase 1/cyclin B1 (Homo sapiens, UniProt P06493); assay: Inhibition of CDK2/cyclin B (unknown origin) after 30 mins by scintillation counting
Sequence (P06493 whole entry): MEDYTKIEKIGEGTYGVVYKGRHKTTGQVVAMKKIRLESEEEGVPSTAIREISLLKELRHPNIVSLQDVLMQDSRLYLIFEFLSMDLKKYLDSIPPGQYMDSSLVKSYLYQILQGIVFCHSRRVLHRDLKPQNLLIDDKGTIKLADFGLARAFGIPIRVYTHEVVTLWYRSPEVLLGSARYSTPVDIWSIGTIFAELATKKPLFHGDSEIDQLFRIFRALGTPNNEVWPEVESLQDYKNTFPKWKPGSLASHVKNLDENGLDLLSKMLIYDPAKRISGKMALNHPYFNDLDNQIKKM
Sequence (P14635 whole entry, further chain): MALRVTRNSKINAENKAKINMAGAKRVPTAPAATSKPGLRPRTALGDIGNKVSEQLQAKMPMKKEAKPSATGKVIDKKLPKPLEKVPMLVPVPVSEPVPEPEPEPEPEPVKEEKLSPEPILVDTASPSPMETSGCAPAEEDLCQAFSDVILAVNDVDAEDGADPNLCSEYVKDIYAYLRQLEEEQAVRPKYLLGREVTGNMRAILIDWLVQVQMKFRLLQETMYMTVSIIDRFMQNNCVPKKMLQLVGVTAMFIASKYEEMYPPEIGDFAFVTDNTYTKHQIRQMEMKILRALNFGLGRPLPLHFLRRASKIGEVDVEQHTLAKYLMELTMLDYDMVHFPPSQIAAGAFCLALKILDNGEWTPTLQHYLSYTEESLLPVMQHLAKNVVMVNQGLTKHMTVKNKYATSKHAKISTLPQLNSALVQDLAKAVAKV
MEASURED PARAMETER: IC50
A complete answer gives the number followed by the unit.

Qu. Provide one value: measured IC50 of CC[C@H](CO)Nc1nc(Nc2cccc(-c3ccccn3)c2)c2ncn(C(C)C)c2n1
Ans. 220 nM

* * *

Reported IC50 values are given for each entry in this list.
target: Cyclin-dependent kinase 5/CDK5 activator 1 (Homo sapiens, UniProt Q00535); test: Inhibition of recombinant human CDK5/p25 after 30 mins by scintillation counting; format: protein-complex assay
Sequence (Q00535 whole entry): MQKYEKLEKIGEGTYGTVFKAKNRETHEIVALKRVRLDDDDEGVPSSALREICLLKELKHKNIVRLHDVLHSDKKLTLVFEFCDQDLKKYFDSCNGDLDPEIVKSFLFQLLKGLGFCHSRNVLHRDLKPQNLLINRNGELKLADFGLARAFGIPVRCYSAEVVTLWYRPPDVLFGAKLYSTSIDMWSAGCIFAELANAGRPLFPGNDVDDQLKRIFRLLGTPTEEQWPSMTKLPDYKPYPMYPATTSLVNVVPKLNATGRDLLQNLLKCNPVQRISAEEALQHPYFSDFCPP
Sequence (Q15078 whole entry, further chain): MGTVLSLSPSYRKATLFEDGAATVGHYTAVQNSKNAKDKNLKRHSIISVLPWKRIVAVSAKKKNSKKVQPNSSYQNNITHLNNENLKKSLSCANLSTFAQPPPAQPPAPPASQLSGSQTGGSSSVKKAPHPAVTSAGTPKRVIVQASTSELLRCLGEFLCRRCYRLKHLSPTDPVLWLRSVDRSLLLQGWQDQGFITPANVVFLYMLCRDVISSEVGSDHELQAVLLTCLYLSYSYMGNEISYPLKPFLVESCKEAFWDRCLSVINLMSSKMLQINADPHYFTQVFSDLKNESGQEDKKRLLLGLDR
Respond numerically; units are nM and should not be typed.

Qu. Provide one value: measured IC50 of CC[C@H](CO)Nc1nc(Nc2cccnc2)c2ncn(C(C)C)c2n1
Ans. 25

Qu. Provide one value: measured IC50 of CC[C@@H](CO)Nc1nc(Nc2ccncc2)c2ncn(C(C)C)c2n1
Ans. 50

Qu. Provide one value: measured IC50 of CC[C@@H](CO)Nc1nc(Nc2ccccn2)c2ncn(C(C)C)c2n1
Ans. 4100
